- Assay method text: HILIC, Waters ACQUITY UPLC BEH Amide, 100 × 2.1 mm, 1.7 µm; A: water + 0.125% formic acid + 10 mM ammonium formate; B: 5% water + 95% acetonitrile + 0.125% formic acid + 10 mM ammonium formate; gradient (min/%B) 0/100 2/100 7.7/70 9.5/40 10.25/30 12.75/100 17/100
- Settings: stereoisomer not certain
Each entry gets f if its LC retention time stays under 8 min, and t if its LC retention time is 8 min or above.

- Compound: "CN1C(=O)C(O)CC1c1cccnc1 (stereo not drawn) [trans-3'-Hydroxycotinine]"
  Group label: "f"
- Compound: "Nc1nc(=O)n(C2OC(CO)C(O)C2O)cc1CO (centres undefined) [5-Hydroxymethylcytidine]"
  Group label: "f"
- Compound: "CN1C(=O)CCC1c1ccc[n+]([O-])c1 [(S)-Cotinine N-oxide]"
  Group label: "f"
- Compound: "CNCCC(Oc1ccccc1C)c1ccccc1 (centres undefined) [Atomoxetine]"
  Group label: "f"
- Compound: "CCC1=C(C)CN(C(=O)NCCc2ccc(S(=O)(=O)NC(=O)NC3CCC(C)CC3)cc2)C1=O (centres undefined) [Glimepiride]"
  Group label: "f"

Lookup: Determine whether measured LC retention time meets or exceeds 8 min for CC(NC(CCc1ccccc1)C(=O)O)C(=O)N1CCCC1C(=O)O (centres undefined) [Enalaprilat]
Found: f

Lookup: API: above_or_equal(metric=LC retention time, cutoff=8 min) for item CC[N+](C)(CC)CCOC(=O)C(O)(c1ccccc1)C1CCCCC1 (centres undefined) [Oxyphenonium]
Found: f

Lookup: Reported LC retention time at or above 8 min? NC(CCSSCCC(N)C(=O)O)C(=O)O (centres undefined) [Homocystine]
Found: t

Lookup: Could you verify whether the entry Cc1ncc(CO)c(CO)c1O [Pyridoxine] shows LC retention time of no less than 8 min?
Found: f

Lookup: Identify whether the reported LC retention time of the following compound is 8 min or greater: COC(=O)CC(O)(CCCC(C)(C)O)C(=O)OC1C(OC)=CC23CCCN2CCc2cc4c(cc2C13)OCO4 (centres undefined) [Homoharringtonine]
Found: f

Lookup: Say whether CN(CCOc1ccc(NS(C)(=O)=O)cc1)CCc1ccc(NS(C)(=O)=O)cc1 [Dofetilide] shows LC retention time of 8 min or more.
Found: f
